# TESTED_SYSTEM: Heat shock factor protein 1 (Homo sapiens) (UniProt Q00613)
# Sequence (Q00613 whole entry, looked up): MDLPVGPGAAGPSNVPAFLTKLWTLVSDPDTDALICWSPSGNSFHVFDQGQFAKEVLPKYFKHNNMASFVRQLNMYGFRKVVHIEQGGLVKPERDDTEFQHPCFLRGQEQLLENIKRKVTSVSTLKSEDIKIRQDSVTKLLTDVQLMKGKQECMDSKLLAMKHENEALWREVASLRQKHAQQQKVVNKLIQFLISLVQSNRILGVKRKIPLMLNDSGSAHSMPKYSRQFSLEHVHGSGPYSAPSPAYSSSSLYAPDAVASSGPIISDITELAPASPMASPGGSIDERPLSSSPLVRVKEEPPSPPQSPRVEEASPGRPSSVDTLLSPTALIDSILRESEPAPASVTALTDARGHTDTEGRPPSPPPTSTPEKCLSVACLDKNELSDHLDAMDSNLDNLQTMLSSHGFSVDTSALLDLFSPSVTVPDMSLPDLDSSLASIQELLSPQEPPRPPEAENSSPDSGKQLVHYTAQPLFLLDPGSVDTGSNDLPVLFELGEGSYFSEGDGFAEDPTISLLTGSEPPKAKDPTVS
# MEASUREMENT_DESCRIPTION: ATG_HSE_CIS: Attagene CIS-FACTORIAL HepG2 Assay for human Heat Shock Transcription Factor 1 (HSE) (AID 2282953)
# CONDITIONS_USED: HepG2 HSE cis-reporter, Attagene RNA transcription; actives raise or lower the signal
Calls of active or inactive are those of the source. How the source made its calls: active means hit-call score of the fitted dose curve at least 0.9, where 1 is the maximum; inactive means score below 0.9.
Choose one outcome from this list and give only that: active, inactive

Here's what some known entries look like.
MOLECULE | TESTED_SYSTEM | CAT
COc1cc(Cl)c(OC)cc1N | Heat shock factor protein 1 (Homo sapiens) (UniProt Q00613) | inactive
NCc1ccco1 | Heat shock factor protein 1 (Homo sapiens) (UniProt Q00613) | inactive
CC(C)CCCCCCc1ccc(OCCOCCO)cc1 | Heat shock factor protein 1 (Homo sapiens) (UniProt Q00613) | inactive
C=C(C)CNCC | Heat shock factor protein 1 (Homo sapiens) (UniProt Q00613) | inactive
CCCC(C)=O | Heat shock factor protein 1 (Homo sapiens) (UniProt Q00613) | inactive

In the following, a different molecule is considered.
Qu. How was CC1(C)C2=CCCC(C)(C)[C@]23CC[C@H]1C3 classified in this test?
Ans. inactive
